# TEST_SYSTEM: mutant G12C K-RAS (Homo sapiens, UniProt P01116, G12C)
# Construct: made in house; host or cells: E. coli BL21
# METHOD_DESCRIPTION: covalent adduct formation (CAF) with mutant G12C K-RAS
# Type: binding
# PARTICULARS: Table 6; 10 μM, 1 h
ATTRIBUTE_MEASURED: % CAF @ 10 μM,1 h (%)

**Q:** Request the reported % CAF @ 10 μM,1 h associated with C=CC(=O)N1C[C@H](C)N(c2nc(=O)n3c4c(c(-c5c(O)cccc5F)c(Cl)cc24)OC[C@@H]3Cn2cccn2)C[C@H]1C (atropisomer, axis not shown) [Example 243]
**A:** 80.6

**Q:** Request the reported % CAF @ 10 μM,1 h associated with C=CC(=O)N1C[C@H](C)N(c2nc(=O)n3c4c(c(-c5ccc(F)cc5F)c(Cl)cc24)OC[C@@H]3Cn2ccnc2)C[C@H]1C [Example 238]
**A:** 79.4

**Q:** Request the reported % CAF @ 10 μM,1 h associated with C=CC(=O)N1C[C@H](C)N(c2nc(=O)n3c4c(c(-c5c(O)cccc5F)c(Cl)cc24)OC[C@@H]3CN(C)CC(F)(F)F)C[C@H]1C (atropisomer, axis not shown) [Example 240]
**A:** 82.1

* * *

# TEST_SYSTEM: mutant G12C K-RAS (Homo sapiens, UniProt P01116, G12C)
# Construct: made in house; host or cells: E. coli BL21
# METHOD_DESCRIPTION: covalent adduct formation (CAF) with mutant G12C K-RAS
# Type: binding
# PARTICULARS: Table 6; 10 μM, 1 h
ATTRIBUTE_MEASURED: % CAF @ 10 μM,1 h (%)

**Q:** Request the reported % CAF @ 10 μM,1 h associated with C=CC(=O)N1C[C@H](C)N(c2nc(=O)n3c4c(c(-c5ccc(F)cc5F)c(Cl)cc24)OC[C@@H]3CN2C[C@H]3CC[C@@H](C2)N3C2COC2)C[C@H]1C
**A:** 92.6

**Q:** Request the reported % CAF @ 10 μM,1 h associated with C=CC(=O)N1C[C@H](C)N(c2nc(=O)n3c4c(c(-c5ccc(F)cc5F)c(Cl)cc24)OC[C@H]3COC[C@H]2CCCN2C)C[C@H]1C
**A:** 91.6

**Q:** Request the reported % CAF @ 10 μM,1 h associated with C=CC(=O)N1C[C@H](C)N(c2nc(=O)n3c4c(c(-c5ccc(F)cc5F)c(Cl)cc24)OC[C@H]3CCCN(C)CC(F)(F)F)C[C@H]1C
**A:** 92.4
